- PROCEDURE DETAILS: Inhibition of VLA-4 binding to radiolabeled vascular cell adhesion molecule-1 (VCAM-1) Ig fusion protein in human Jurkat cells
- Type: cell-based
Assign pIC50 to each entry below.
Answers are plain numbers, as −log10 of the molar value.

Consider the reported pIC50 for these compounds:
COc1ccccc1-c1ccc(C[C@H](NC(=O)C(OC)c2ccccc2)C(=O)O)cc1 (stereo not given in full) :: 8.15
COc1ccccc1-c1ccc(C[C@H](NC(=O)Cc2ccncc2)C(=O)O)cc1 :: 7.91
COc1ccccc1-c1ccc(C[C@H](NC(=O)Cc2ccc(Cl)cc2)C(=O)O)cc1 :: 6.50

Provide pIC50 values for the following items, in order.
1. COc1ccccc1-c1ccc(C[C@H](NC(=O)C2(c3cccnc3)CCCC2)C(=O)O)cc1
2. COc1ccccc1-c1ccc(C[C@H](NC(=O)C2(c3cncc4ccccc34)CCCC2)C(=O)O)cc1

1: 9.30; 2: 8.01

Provide pIC50 values for the following items, in order.
1. COc1ccccc1-c1ccc(C[C@H](NC(=O)C2(c3cnccc3C)CCCC2)C(=O)O)cc1
2. COc1ccccc1-c1ccc(C[C@H](NC(=O)C2(c3ccccc3)CCCCC2)C(=O)O)cc1
3. COc1ccccc1-c1ccc(C[C@H](NC(=O)Cc2ccccc2Cl)C(=O)O)cc1
4. COc1ccccc1-c1ccc(C[C@H](NC(=O)Cc2ccc(-c3ccccc3)cc2)C(=O)O)cc1
5. COc1ccccc1-c1ccc(C[C@H](NC(=O)Cc2cccc3ccccc23)C(=O)O)cc1

1. 8.92
2. 8.19
3. 7.43
4. 6.22
5. 6.84
